Recorded protein stability index for the following variants
B1: RHOBTB3 (parent)
chain: VSHVFMLLFNVKSPTDIQDSSIIR

# Variants of: B1
# Assay overview: protein stability index of a GFP-peptide fusion (GPS, HEK-293T) (PSI 1-6); higher = more stable;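 note: lentivirally expressed fusions sorted by FACS into six bins by GFP to DsRed ratio, PSI derived from sequencing read proportions per bin multiplied by bin number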
# Assay conditions: c terminus: a fixed tail appended
Enter a number only.

D16N	3.77
F9K	2.21
R24Q	4.67
I17L	2.92
N10T	2.15
D16S	2.63
I17N	2.1
V1E	2.08

Next item in the queue.
Report protein stability index for F5E please.
2.3

The reported measurements were obtained from the supplement of paper PMC10567573.
